tested on: BJ-iPS28 induced pluripotent stem cells; assay: CellTiter-Glo luminescent cell viability screen, BJ-iPS28; type: cell-based; conditions: Homo sapiens; at 20 μM; pluripotent stem cells
Short version: inhibition at 20 µM at least 80% is true, less is false.

Example entries and their recorded answers appear below.
- item smiles: "CCN(CC)C(=O)C(=O)c1c(-c2ccccc2)[nH]c2c1sc1ccccc12"
  measured target: "BJ-iPS28 induced pluripotent stem cells"
  label value: "true"
- item smiles: "O=C1C=CC=C1/C=C/C(=N\\Nc1ccccc1)c1ccccc1"
  measured target: "BJ-iPS28 induced pluripotent stem cells"
  label value: "true"
- item smiles: "O=S(=O)(NNc1ccccc1)c1ccc2ccccc2c1"
  measured target: "BJ-iPS28 induced pluripotent stem cells"
  label value: "true"

Q: I'd appreciate it if you could say whether CCCCCC(=O)NNc1ccc(Cl)cc1 has inhibition at 20 µM at least equal to 80%.
A: true

Q: I'd appreciate it if you could say whether CC(=O)Oc1ccc(/C=C/c2ccc3c(c2)CCN3C)cc1 has inhibition at 20 µM at least equal to 80%.
A: true

Q: I'd appreciate it if you could say whether O=C(Nc1ccccc1)n1cc(F)c(=O)[nH]c1=O has inhibition at 20 µM at least equal to 80%.
A: false

Q: I'd appreciate it if you could say whether O=C(NCCc1ccc(O)cc1)c1ccc(N2CCCCC2)cc1 has inhibition at 20 µM at least equal to 80%.
A: false

----------
system: BJ-iPS28 induced pluripotent stem cells; assay: CellTiter-Glo luminescent cell viability screen, BJ-iPS28; assay type: cell-based; conditions: Homo sapiens; at 20 μM; pluripotent stem cells
property: inhibition at 20 µM (%)
Write it as a number; the unit % goes unstated.

Here is how some compounds turned out for inhibition at 20 µM.
- compound: "CCOC(=O)CN1CC(=O)/C(=C\\NNc2ccccc2)C1=O"
  inhibition at 20 µM, %: 90.6
- compound: "Cc1ccc(NNC(=O)C(O)(c2ccccc2)c2cccs2)cc1 (stereo not shown)"
  inhibition at 20 µM, %: 83.3

Q: For O=C(NNc1ccccc1)c1ccncc1 [PluriSIn #1, isonicotinic acid N′-phenylhydrazide] , what is its reported inhibition at 20 µM?
A: 85.4

Q: For C/C(=N\O)NNc1ccc(Cl)cc1 , what is its reported inhibition at 20 µM?
A: 92.3

----------
system: Huh7 cells; assay: CellTiter-Glo counter-screen, Huh7; assay type: cell-based; conditions: Homo sapiens, Huh-7, cancer cells
inhibition at 20 µM: recorded values
Write it as a number; the unit % goes unstated.

Here is how some compounds turned out for inhibition at 20 µM.
- compound: "O=C1C=CC=C1/C=C/C(=N\\Nc1ccccc1)c1ccccc1"
  numeric value: 11.8
- compound: "Cc1ccc(NNC(=O)C(O)(c2ccccc2)c2cccs2)cc1 (stereo not drawn)"
  numeric value: 4.6

Q: For C(=N\C1CCC(CC2CCCCC2)CC1)/OC1CCOC1 (stereo not drawn) , what is its reported inhibition at 20 µM?
A: 22.2

----------
inhibition at 12.5 µM: recorded values
system: ES-derived mesenchymal stem cells; assay: CellTiter-Glo counter-screen, mesenchymal stem cells; assay type: cell-based; details: Homo sapiens, at 20 μM (table title)
Write it as a number; the unit % goes unstated.

- compound: "Nc1cc(N)cc(COc2ccc(-c3ccccc3)cc2)c1 [PluriSIn #3]"
  inhibition at 12.5 µM / %: 3.3
- compound: "CCN(CC)C(=O)C(=O)c1c(-c2ccccc2)[nH]c2c1sc1ccccc12 [PluriSIn #12]"
  inhibition at 12.5 µM / %: -7.3
- compound: "CC(=O)Oc1ccc(/C=C/c2ccc3c(c2)CCN3C)cc1 [PluriSIn #7]"
  inhibition at 12.5 µM / %: 35.8
- compound: "C/C(=N\\O)NNc1ccc(Cl)cc1 [PluriSIn #9]"
  inhibition at 12.5 µM / %: -12.6
- compound: "Cc1oc2ccccc2c1/C=N/Nc1ccccc1 [PluriSIn #8]"
  inhibition at 12.5 µM / %: -33.8

Q: For O=C(NNc1ccccc1)c1ccncc1 [PluriSIn #1, isonicotinic acid N′-phenylhydrazide] , what is its reported inhibition at 12.5 µM?
A: -4.9

Q: For O=C(Nc1ccccc1)n1cc(F)c(=O)[nH]c1=O [PluriSIn #2] , what is its reported inhibition at 12.5 µM?
A: -1.4

Q: For O=C1C=CC=C1/C=C/C(=N\Nc1ccccc1)c1ccccc1 [PluriSIn #13] , what is its reported inhibition at 12.5 µM?
A: -7.3

Q: For C(=N\C1CCC(CC2CCCCC2)CC1)/OC1CCOC1 (stereo not shown) [PluriSIn #15] , what is its reported inhibition at 12.5 µM?
A: 12

Q: For CCOC(=O)CN1CC(=O)/C(=C\NNc2ccccc2)C1=O [PluriSIn #11] , what is its reported inhibition at 12.5 µM?
A: 6

----------
inhibition at 20 µM: recorded values
experiment: CellTiter-Glo counter-screen, hepatocytes; format: cell-based; conditions: human, human embryonic stem cell-derived hepatocytes (Cellartis), read-out: Inhibition (%) ES-derived hepatocytes
Write it as a number; the unit % goes unstated.

Here is how some compounds turned out for inhibition at 20 µM.
- compound: "Cc1oc2ccccc2c1/C=N/Nc1ccccc1"
  inhibition at 20 µM (%): 14.6
- compound: "O=C(NN(C(=O)c1ccccc1)c1ccccc1)c1ccc(Cl)cc1"
  inhibition at 20 µM (%): -4.1
- compound: "C(=N\\C1CCC(CC2CCCCC2)CC1)/OC1CCOC1 (stereo not drawn)"
  inhibition at 20 µM (%): 18.8

Q: For CC(=O)Oc1ccc(/C=C/c2ccc3c(c2)CCN3C)cc1 , what is its reported inhibition at 20 µM?
A: 15.3

Q: For CCOC(=O)CN1CC(=O)/C(=C\NNc2ccccc2)C1=O , what is its reported inhibition at 20 µM?
A: -4.7

Q: For Cc1ccc(NNC(=O)C(O)(c2ccccc2)c2cccs2)cc1 (stereo not drawn) , what is its reported inhibition at 20 µM?
A: -5.2

----------
inhibition at 20 µM: recorded values
Tested on: BJ-iPS28 induced pluripotent stem cells
Assay: CellTiter-Glo luminescent cell viability screen, BJ-iPS28
Assay type: cell-based
Settings: Homo sapiens; at 20 μM; pluripotent stem cells
Procedure: 5,000 CSES2 cells were plated in 50 μl per well of mTeSR1 medium into black 384-well clear-bottom plates (Falcon BD) pre-coated with Matrigel™ using WellMate cell dispenser (Matrix, Hudson, N.H.). […] Cell viability was determined 24 hours after compound treatment using CellTiter-Glo® luminescent cell viability assay kits. […] The effect of the selected compounds on human iPS cells was then determined. […]
Write it as a number; the unit % goes unstated.

- item smiles: "Cc1oc2ccccc2c1/C=N/Nc1ccccc1"
  property: "inhibition at 20 µM"
  numeric value: 82.2

Q: For Nc1cc(N)cc(COc2ccc(-c3ccccc3)cc2)c1 , what is its reported inhibition at 20 µM?
A: 81.1

Q: For O=C(NN(C(=O)c1ccccc1)c1ccccc1)c1ccc(Cl)cc1 , what is its reported inhibition at 20 µM?
A: 81.7

----------
system: Huh7 cells; test: CellTiter-Glo counter-screen, Huh7; type: cell-based; conditions: Homo sapiens, Huh-7, cancer cells
property: inhibition at 20 µM (%)
Write it as a number; the unit % goes unstated.

Here is how some compounds turned out for inhibition at 20 µM.
- compound: "O=C(NCCc1ccc(O)cc1)c1ccc(N2CCCCC2)cc1 [PluriSIn #4]"
  result units: "%"
  inhibition at 20 µM: 12.1
- compound: "O=C(NN(C(=O)c1ccccc1)c1ccccc1)c1ccc(Cl)cc1 [PluriSIn #14]"
  result units: "%"
  inhibition at 20 µM: 11.5
- compound: "CCOC(=O)CN1CC(=O)/C(=C\\NNc2ccccc2)C1=O [PluriSIn #11]"
  result units: "%"
  inhibition at 20 µM: 7

Q: For C/C(=N\O)NNc1ccc(Cl)cc1 [PluriSIn #9] , what is its reported inhibition at 20 µM?
A: 10.4

Q: For Nc1cc(N)cc(COc2ccc(-c3ccccc3)cc2)c1 [PluriSIn #3] , what is its reported inhibition at 20 µM?
A: -5.9

----------
system: Huh7 cells; experiment: CellTiter-Glo counter-screen, Huh7; format: cell-based; settings: Homo sapiens, Huh-7, cancer cells
property: inhibition at 20 µM
In your response, the unit should come after the numeric value.

Here is how some compounds turned out for inhibition at 20 µM.
- compound: "O=C(Nc1ccccc1)n1cc(F)c(=O)[nH]c1=O"
  property: "inhibition at 20 µM"
  result: "-0.2%"
- compound: "Cc1oc2ccccc2c1/C=N/Nc1ccccc1"
  property: "inhibition at 20 µM"
  result: "10.9%"

Please find the next compound below.
Q: For O=C(NNc1ccccc1)c1ccncc1 [PluriSIn #1, isonicotinic acid N′-phenylhydrazide] , what is its reported inhibition at 20 µM?
A: 5.8%
